measured_target: NHERF2_2, Q15599
Sequence (Q15599 142-238): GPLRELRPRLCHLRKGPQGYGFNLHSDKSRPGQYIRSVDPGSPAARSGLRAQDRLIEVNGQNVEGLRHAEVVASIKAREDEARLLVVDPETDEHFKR
assay_remarks: holdup assay
Set-up: key: below the threshold = too weak to quantify, mostly under pKd 3.1 to 4
assay_conditions: plain residues with an end cap or a label only (N-terminal biotin on a linker: ado-ado)
readout: pKd

Here is how some binders turned out for pKd.
binder: AAVENKVTDL [PLXNB1, O43157]
value_observed: 4.07
//
binder: MQHQRTHTRV [ZSCAN30, Q86W11]
value_observed: 3.67
//
binder: LESTTVGTSV [KARS1, Q15046]
value_observed: below the threshold
//
binder: REEPDHSTEV [CCRL2, O00421]
value_observed: 3.65

## Task Query: pKd; subject: RQKEVRESKC [SCN8A, Q9UQD0]
## Result 3.57

## Task Then this binder: DPAESMESLV [PTPRG, P23470]
## Result below the threshold

## Task Then this binder: PYPTADHMLA [JUP, P14923]
## Result below the threshold

## Task Then this binder: PSHPRLQTHV [KIRREL2, Q6UWL6]
## Result below the threshold

## Task Then this binder: EDLEDEWEVI [TECPR2, O15040]
## Result below the threshold

## Task Then this binder: IDESKKEWLI [CNTNAP2, Q9UHC6]
## Result below the threshold

## Task Then this binder: SLNANEVEWF [RNF130, Q86XS8]
## Result 4.56

## Task Then this binder: PTPDLPQTRV [KLHDC7A, Q5VTJ3]
## Result below the threshold

## Task Then this binder: NIAESLESLV [PTPRZ1, P23471]
## Result below the threshold

## Task Then this binder: ARSAAASNYV [CLDN4, O14493]
## Result below the threshold

## Task Then this binder: GEDRSPPTAL [MKNK1, Q9BUB5]
## Result 3.91

## Task Then this binder: AQRARSPSDV [GPR12, P47775]
## Result below the threshold
